FYI, the data here is from ChEMBL document CHEMBL4130624.

# method.summary: Dissociation constant, pKa of the compound at 25 degC by potentiometric titration assay
# Type: physicochemical
result.type: pKa
Respond with the number and no other words.

COc1cnc(C(=O)Nc2ccc(F)c([C@@]3(C)N=C(N)CO[C@H]3C(F)(F)F)c2)cn1 = 7.8
COc1cnc(C(=O)Nc2ccc(F)c([C@@]3(C)N=C(N)COC3=C(F)F)c2)cn1 = 7.9

Ask: Item under review: COc1cnc(C(=O)Nc2ccc(F)c([C@@]3(C)N=C(N)CO[C@H]3C(F)F)c2)cn1 . Reported pKa?
Reply: 8.4

---

# method.summary: Tmax in Beagle dog at 10 mg/kg, po administered as bolus dose by LC-MS/MS analysis
# Type: ADME, organism-based, Canis lupus familiaris
# condition.summary: in vivo
result.type: Tmax (h)
All answers are understood in h, so give the number only.

Ask: Item under review: C[C@]1(c2cc(NC(=O)c3ccc(C#N)cn3)ccc2F)N=C(N)CO[C@H]1C(F)(F)F . Reported Tmax?
Reply: 2

---

# method.summary: Clearance in Sprague-Dawley rat at 2.5 mg/kg, iv administered as bolus dose by LC-MS/MS analysis
# Type: ADME, organism-based
# condition.summary: in vivo
result.type: clearance (mL/min/kg)
All answers are understood in mL/min/kg, so give the number only.

Ask: Item under review: C[C@]1(c2cc(NC(=O)c3ccc(C#N)cn3)ccc2F)N=C(N)CO[C@H]1C(F)(F)F . Reported clearance?
Reply: 47

---

# assayed.system: Cytochrome P450 1A2 (Homo sapiens, UniProt P05177)
# Sequence (P05177 whole entry): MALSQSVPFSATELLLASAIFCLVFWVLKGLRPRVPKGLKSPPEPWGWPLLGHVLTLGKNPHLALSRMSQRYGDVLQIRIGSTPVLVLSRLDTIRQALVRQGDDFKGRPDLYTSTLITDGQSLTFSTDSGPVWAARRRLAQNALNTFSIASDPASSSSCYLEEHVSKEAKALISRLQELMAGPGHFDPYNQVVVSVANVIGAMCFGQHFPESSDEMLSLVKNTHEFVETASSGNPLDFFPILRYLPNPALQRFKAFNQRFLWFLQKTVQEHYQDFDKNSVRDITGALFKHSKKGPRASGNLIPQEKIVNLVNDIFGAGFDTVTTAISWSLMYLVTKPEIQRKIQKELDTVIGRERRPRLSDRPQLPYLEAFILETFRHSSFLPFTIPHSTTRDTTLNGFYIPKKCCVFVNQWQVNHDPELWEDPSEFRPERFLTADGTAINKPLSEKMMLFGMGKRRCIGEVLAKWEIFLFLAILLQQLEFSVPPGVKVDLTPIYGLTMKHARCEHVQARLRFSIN
# method.summary: Reversible inhibition of recombinant human CYP1A2 by fluorescence-based assay
pIC50: −log10 of the molar value.
result.type: pIC50

Ask: Item under review: C[C@]1(c2cc(NC(=O)c3ccc(C#N)cn3)ccc2F)N=C(N)CO[C@H]1C(F)(F)F . Reported pIC50?
Reply: < 4.52

---

# method.summary: Oral bioavailability in Sprague-Dawley rat at 10 mg/kg administered as bolus dose by LC-MS/MS analysis
# Format: ADME, organism-based
# condition.summary: in vivo
result.type: bioavailability (%)
All answers are understood in %, so give the number only.

Ask: Item under review: C[C@]1(c2cc(NC(=O)c3ccc(C#N)cn3)ccc2F)N=C(N)CO[C@H]1C(F)(F)F . Reported bioavailability?
Reply: 36
